Data provenance is PubChem BioAssay (NCI).

Test: NCI Yeast Anticancer Drug Screen. Data for the cln2 rad14 strain (AID 165);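 note: 0% = growth equal to vehicle treated cultures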
Settings: S. cerevisiae cln2 rad14 strain, hits give high values; at 50.0 µM unless noted
About 79,000 compounds went through this panel and 15% of them were active in at least one assay; those are over-represented in the sample as a whole.
Recorded measurements of growth inhibition, one per entry
attribute measured: growth inhibition (%)

| compound | data value |
| --- | --- |
| N#CC1C(=O)C(=O)N(c2ccccc2)C1=O (configuration not stated) | 3.15 |
| COC(C(=O)NN)c1ccccc1 (configuration not stated) | -43.5 |
| CC1Cc2c(n[nH]c2CC2CC(=O)NC(=O)C2)C(C)C1 (configuration not stated) | -15.7 |
| Cc1ccccc1C(=O)NCC(=O)O | 3.65 |
| CCOc1ccc(F)cc1 | 22.6 |
| CC(C)(C)[Si](C)(C)OCC1OC(n2cnc3c(=O)[nH]cnc32)CC1O (configuration not stated) | 8 |
| COC(=O)[C@@H]1O[C@H]1c1ccccn1 | -5.75 |
